Where do the numbers come from? From ChEMBL document CHEMBL4406854.

experiment: Cytotoxicity against human TZM-bl cells assessed as reduction in cell viability incubated for 48 hrs by MTT assay; format: cell-based
CC50 at 48 h vs 400 µM: less than gives Fulfilled; not less than gives Not fulfilled.

Ask: Hello, is CC50 at 48 h of the following compound strictly smaller than 400 µM? `Cc1cc2c(cnn2-c2ccc(C(F)(F)F)cc2)c(=O)[nH]1`
Reply: Fulfilled

Ask: Hello, is CC50 at 48 h of the following compound strictly smaller than 400 µM? `COc1cccc(-n2ncc3c(=O)[nH]c(C)cc32)c1`
Reply: Not fulfilled

Ask: Hello, is CC50 at 48 h of the following compound strictly smaller than 400 µM? Cc1cn([C@H]2C[C@H](N=[N+]=[N-])[C@@H](CO)O2)c(=O)[nH]c1=O [ZIDOVUDINE]
Reply: Not fulfilled

Ask: Hello, is CC50 at 48 h of the following compound strictly smaller than 400 µM? `Cc1cc2c(cnn2-c2ccc(Cl)c(Cl)c2)c(=O)[nH]1`
Reply: Fulfilled

Ask: Hello, is CC50 at 48 h of the following compound strictly smaller than 400 µM? `Cc1ccc(-n2ncc3c(=O)[nH]c(C)cc32)cc1`
Reply: Fulfilled

Ask: Hello, is CC50 at 48 h of the following compound strictly smaller than 400 µM? `Cc1cc(C)cc(-n2ncc3c(=O)[nH]c(C)cc32)c1`
Reply: Not fulfilled

Ask: Hello, is CC50 at 48 h of the following compound strictly smaller than 400 µM? `Cc1cc2c(cnn2-c2ccc(Br)cc2)c(=O)[nH]1`
Reply: Fulfilled

Ask: Hello, is CC50 at 48 h of the following compound strictly smaller than 400 µM? `Cc1cc2c(cnn2-c2cccc(C(F)(F)F)c2)c(=O)[nH]1`
Reply: Fulfilled

Ask: Hello, is CC50 at 48 h of the following compound strictly smaller than 400 µM? `Cc1cc2c(cnn2-c2cc(Cl)cc(Cl)c2)c(=O)[nH]1`
Reply: Fulfilled

Ask: Hello, is CC50 at 48 h of the following compound strictly smaller than 400 µM? `Cc1cc2c(cnn2-c2cccc(Br)c2)c(=O)[nH]1`
Reply: Fulfilled

Ask: Hello, is CC50 at 48 h of the following compound strictly smaller than 400 µM? `Cc1cc2c(cnn2-c2cc(F)cc(F)c2)c(=O)[nH]1`
Reply: Fulfilled
